Ref: patent US20220306762A1

I'd appreciate it if you could supply FACs 10 ug/ml (percent gated) values for the items below.
# System: T1, human CD38 on transiently transfected Expi293 cells (Origene #SC321273) (human, UniProt P28907 1-300)
# T1 construct: whole, on cells; also called Human (FACs)
# Procedure summary: flow cytometry, transfected Expi293 cells;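 note: antibody binding to Expi293 cells transiently expressing human or murine CD38, antibodies applied at 10 ug/ml for 60 min on ice, read by flow cytometry as percent gated cells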
Numbers only, in %.

Study these solved cases before continuing.
>>> result("40617p1.2.H1 (scFv, V domains shown, tested as scFv-Fc supernatant) VH: EVQLLESGGGLVQPGGSLRLSCAASGFTFTNYWMTWVRQAPGKGLEWVSAISSYGGNYMYYADSVKGRFTISRDNSENTLYLQMNSLRAEDTAVYYCAKDWDDGMDVWGQGTTVTVSS VL: EIVMTQSPAVLSVSPGERATLSCRASQTVGSKLAWYQQKPGQAPRLLIYGVSTRAAGIPDRFSGSGSGTDFTLTISSLQSEDFAVYYCQQYYDLPPYSFGGGTKVEIK")
69.5
>>> result("40769p1.2.B4 (scFv, V domains shown, tested as scFv-Fc supernatant) VH: EVQLLESGGDLVQPGGSLRLSCGASGFTFSDHYMSWVRQAPGKGLEWVADISARGSNTWYADSVKGRFTISRDNSENTLYLQMNSLRAEDTAVYYCAKNWNYNYGMDVWGHGTTVTVSS VL: QSVLTQAPSASGTPGQRVTISCSGSSIQNNYVSWYQQLPGTAPKLLIYRNFERPSGVPDRFSASKSGTSASLAISGLQSEDEADYYCASWDDSLNWVFGGGTKLTVL")
81

Quick request: FACs 10 ug/ml (percent gated) for each listed item, please.
1. 40769p1.1.H3 (scFv, V domains shown) VH: EVQLLESGGGLVQPGGSLRLSCAASGFAFNDYLMSWVRQAPGKGLEWVSTISWSGGSTYYADSVKGRFTISRDNSKNTLYLQMNSLRAEDTALYYCARDRYRYNYYYFMDVWGQGTTVTV VL: QSVLTQPPSASGTPGQRVTISCSGSTSDSPYDRIDWYQQLPGTAPKLLIYKDDQRPSGVPDRFSGSKSGTSASLAISGLQSEDEADYYCATWDAMLSAWVFGGGTKLTVL
2. 40769p1.1.G12 (scFv, V domains shown, tested as scFv-Fc supernatant) VH: EVQLLESGGGLVQPGGSLRLSCAASGFTFDDYVMSWVRQAPGKGLEWVSEISESDGSNKYYADSVKGRFIISRDNSKNTLYLQMNSLRAEDTAVYYCARLEPEKYYGMDVWGQGTTVTVSS VL: QSVLTQPPSASGTPGQRVTISCSGSNSNIGNNLVSWYQQLPGTAPKLLIYRHDHRPSGVPDRFSGSKSGTSASLAISGLQSEDEADYYCATWDDSLNGRAFGGGTKLTVL
3. 40769p1.1.E2 (scFv, V domains shown, tested as scFv-Fc supernatant) VH: EVLLLESGGGLVQPGGSLRLSCAASGFTFSDYWMSWVRQAPGKGLEWVSTISISAGIIYYADSVKGRFTISRDNSKNTLYLQMNSLRAEDTAVYYCAKDNWNDYYGMDVWGQGTTVTVSS VL: QSVLTQPPSASGTPGQRVTMSCSGNNQNIRDNYVYWYQQVPGTAPKLLIYKDDQRPSGVPDRFSGSKSGTSASLAISGLQSEDEADYYCATWDGSLKARVFGGGTKLTVL

Reply:
[82.5, 68.4, 82]
